These entries and their values trace back to ChEMBL document CHEMBL1671785.

assay: Inhibition of soybean lipoxygenase after 15 mins; design: species or system Glycine max
Hi! Just check whether EC50 is below 60 µM. Below gives class 1, equal or above gives class 0.

- Smiles notation: "CCc1c(O)c(=O)ccn1CC"
  Class label: "class 1"
- Smiles notation: "Cl.O=C(CNC(=O)c1nccc(O)c1O)NCc1ccccc1"
  Class label: "class 1"
- Smiles notation: "CNC(=O)[C@H](Cc1ccccc1)NC(=O)c1nccc(O)c1O.Cl"
  Class label: "class 1"
- Smiles notation: "CC(C)CNC(=O)[C@H](Cc1ccccc1)NC(=O)c1nccc(O)c1O.Cl"
  Class label: "class 1"
- Smiles notation: "CC(C)CNC(=O)[C@H](C)NC(=O)c1nccc(O)c1O.Cl"
  Class label: "class 1"
- Smiles notation: "Cc1c(O)c(=O)ccn1C"
  Class label: "class 0"
- Smiles notation: "C[C@H](NC(=O)c1nccc(O)c1O)C(=O)NCc1ccccc1.Cl"
  Class label: "class 0"
- Smiles notation: "Cl.O=C(N[C@@H](Cc1ccccc1)C(=O)NCc1ccccc1)c1nccc(O)c1O"
  Class label: "class 1"
- Smiles notation: "CNC(=O)[C@H](C)NC(=O)c1nccc(O)c1O.Cl"
  Class label: "class 0"
- Smiles notation: "CC(C)CNC(=O)CNC(=O)c1nccc(O)c1O.Cl"
  Class label: "class 1"
- Smiles notation: "CNC(=O)CNC(=O)c1nccc(O)c1O.Cl"
  Class label: "class 1"
